Every entry's value here was drawn from PubChem BioAssay (NCATS).

Target: Lysosomal acid glucosylceramidase (Homo sapiens) (UniProt P04062)
Sequence (P04062 whole entry, looked up): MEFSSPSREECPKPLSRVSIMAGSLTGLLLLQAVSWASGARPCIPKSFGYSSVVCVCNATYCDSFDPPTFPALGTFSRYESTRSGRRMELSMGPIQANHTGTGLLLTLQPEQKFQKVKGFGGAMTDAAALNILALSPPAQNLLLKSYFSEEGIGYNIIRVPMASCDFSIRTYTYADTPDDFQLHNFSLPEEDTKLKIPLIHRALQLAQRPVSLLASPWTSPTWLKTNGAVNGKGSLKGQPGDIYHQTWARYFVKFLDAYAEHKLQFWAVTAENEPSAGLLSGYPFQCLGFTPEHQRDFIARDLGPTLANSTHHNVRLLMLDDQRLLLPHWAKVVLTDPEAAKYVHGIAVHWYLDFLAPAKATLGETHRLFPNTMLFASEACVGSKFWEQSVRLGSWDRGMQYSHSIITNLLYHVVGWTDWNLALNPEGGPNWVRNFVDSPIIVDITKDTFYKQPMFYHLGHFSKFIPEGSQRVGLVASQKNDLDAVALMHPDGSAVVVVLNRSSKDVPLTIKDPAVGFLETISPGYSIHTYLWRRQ
Assay: Glucocerebrosidase-p2 (AID 348); note: potency is the fitted concentration of half-maximal effect
Details: purified GBA, blue fluorogenic substrate, 40 min
Activity calls are given as the source filed them. Cut-off read from the data, not from the text of the source: active = potency below about 10 µM; inactive = the rest.
Measured Attribute: Potency

**Query** Quote Potency reported for "COCCn1c(=O)c(-c2cn(C)c3ccccc23)nc2cnc(N3CCOCC3)nc21" please.
**Result** > 11.4 µM (inactive)

**Query** Quote Potency reported for "CC(=O)NCCNc1ccnc(-c2ccccc2C(F)(F)F)n1" please.
**Result** > 11.4 µM (inactive)

**Query** Quote Potency reported for "COc1cccc(Nc2ncc3nc(-c4ccccc4)c(=O)n(C[C@H]4CCCO4)c3n2)c1" please.
**Result** > 11.4 µM (inactive)

**Query** Quote Potency reported for "CS(=O)(=O)N1CCC2(CCN(C(=O)Nc3cccc(C#N)c3)CC2)CC1" please.
**Result** > 11.4 µM (inactive)

**Query** Quote Potency reported for "Cc1cnc(CNc2ncncc2-c2ccccc2C#N)cn1" please.
**Result** > 11.4 µM (inactive)

**Query** Quote Potency reported for "CN(C)c1ncc2nc(-c3cn(C)c4ccccc34)c(=O)n(C[C@H]3CCCO3)c2n1" please.
**Result** > 11.4 µM (inactive)

**Query** Quote Potency reported for "Cc1noc(C)c1C(=O)N1CCC[C@@]2(CCN(c3ncccn3)C2)C1" please.
**Result** > 11.4 µM (inactive)

**Query** Quote Potency reported for "COc1ncc2nc(-c3ccccc3)c(=O)n(-c3ccccc3)c2n1" please.
**Result** > 11.4 µM (inactive)

**Query** Quote Potency reported for "CN(C)c1ccc(-c2ccc3ncnc(N(C)C)c3c2)cc1" please.
**Result** > 11.4 µM (inactive)

**Query** Quote Potency reported for "O=C(c1csnn1)N1CCC2(CCCN(Cc3cc(C(F)(F)F)cc(C(F)(F)F)c3)C2)CC1" please.
**Result** > 11.4 µM (inactive)

**Query** Quote Potency reported for "O=C(c1cc(C(F)(F)F)cc(C(F)(F)F)c1)N1CCC2(CCCN(Cc3nccs3)C2)CC1" please.
**Result** > 11.4 µM (inactive)

**Query** Quote Potency reported for "CC(C)NC(=O)N1CC[C@@]2(CCCN(C(=O)c3cccn3C)C2)C1" please.
**Result** > 11.4 µM (inactive)

**Query** Quote Potency reported for "Cc1nc2cnc(N3CCOCC3)nc2n(C)c1=O" please.
**Result** > 11.4 µM (inactive)

**Query** Quote Potency reported for "Cn1c(=O)c(-c2ccc(Cl)cc2)nc2cnc(N3CCOCC3)nc21" please.
**Result** > 11.4 µM (inactive)

**Query** Quote Potency reported for "COc1cccc(Nc2ncc3nc(C)c(=O)n(CCc4ccccc4)c3n2)c1" please.
**Result** > 11.4 µM (inactive)

**Query** Quote Potency reported for "COc1ccccc1CCn1c(=O)c(-c2cc(F)cc(F)c2)nc2cncnc21" please.
**Result** > 11.4 µM (inactive)

**Query** Quote Potency reported for "CN1CCN(c2ncc3nc(-c4cc(F)cc(F)c4)c(=O)n(CCc4ccccc4)c3n2)CC1" please.
**Result** > 11.4 µM (inactive)

**Query** Quote Potency reported for "Cc1noc(C)c1-c1ccc2ncnc(NCc3cccnc3)c2c1" please.
**Result** > 11.4 µM (inactive)

**Query** Quote Potency reported for "COC(=O)N1CCC2(CCN(Cc3nccs3)CC2)CC1" please.
**Result** > 11.4 µM (inactive)

**Query** Quote Potency reported for "O=C(c1ccco1)N1CCC2(CC1)CCN(c1ccccc1)CC2" please.
**Result** > 11.4 µM (inactive)

**Query** Quote Potency reported for "COC(=O)N1CCC2(CCCN(c3ccc(-c4ccccc4)cc3)C2)CC1" please.
**Result** > 11.4 µM (inactive)

**Query** Quote Potency reported for "O=c1c(-c2cc(F)cc(F)c2)nc2cnc(N3CCNCC3)nc2n1C1CC1" please.
**Result** > 11.4 µM (inactive)

====

Assay: qHTS for Antimalaria activity screened against the NCATS CANVASS Library (AID 1347380); note: nearly all actives have a fitted effect of over 40% in size
Conditions: P. falciparum Dd2 growth, SYBR Green fluorescence, 72 h; series mostly up to 28.7 µM
Inconclusive results are not listed. Active and inactive are the calls of the source. The call rests on the fitted dose curve; in most records, active means well fitted cell-killing curve with a large enough effect; inconclusive means small, poorly fitted or top-dose-only effect, or effect the other way; inactive means no such curve, though single readings can be large or run the other way.
Field 'call' accepts active, inactive

**Query** Short answer needed: outcome of this test for "C=C(C)C(=O)O[C@H]1C[C@@]2(C)OC(=CC2=O)/C(C)=C\[C@H]2OC(=O)C(=C)[C@H]12" ?
**Result** active

**Query** Short answer needed: outcome of this test for "Cc1cc(C)c(O)c(C(=O)CC2CC(=O)NC(=O)C2)c1" ?
**Result** active

**Query** Short answer needed: outcome of this test for "C=CC(C)(C)C(=O)[C@@H](C)[C@@H]1CC[C@@](C)(C=C)O1" ?
**Result** inactive

**Query** Short answer needed: outcome of this test for C/C=C/C1C=CC2CC(C)CC(C)C2C1C(=O)CC(=O)NC(CO)C/C=C/CCCCC (stereo not drawn) ?
**Result** inactive

**Query** Short answer needed: outcome of this test for O=C1CC2OCC=C3CN4C5CC3C2[C@@H]2N1c1ccccc1[C@]52C[C@@H]4C1=C[C@H]2C3CC4N(CC[C@@]45c4ccccc4N(C1=O)[C@@H]25)C/C3=C/CO (stereo partly drawn) ?
**Result** active

**Query** Short answer needed: outcome of this test for "O=C1CCC(=O)N(O)CCCCCNC(=O)CCC(=O)N(O)CCCCCNC(=O)CCC(=O)N(O)CCCCCN1" ?
**Result** active

**Query** Short answer needed: outcome of this test for "C[n+]1cc2cc(C(N)=O)[nH]c3c(=N)c(Cl)c(N)c1c23" ?
**Result** inactive

**Query** Short answer needed: outcome of this test for COC(=O)c1cc2cc3c(c(O)c2c(=O)o1)OC1(CC3)CC2=C(O1)C(=O)c1c(O)c(OC)cc(OC)c1C2=O (stereo not drawn) ?
**Result** inactive

====

Assay: Stat Signaling Pathway (AID 446);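 note: ME-180 cervical cancer cells given 40 pM IL-6 alongside compound; SIE-controlled beta-lactamase reporter measured as 460/530 nm FRET emission ratio; % is set by controls: 0 for no effect and ±100 for the full control effect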
Settings: ME-180 (cervical carcinoma) SIE beta-lactamase reporter, IL-6 stimulated, 5 h; at 7.69 µM (top of the series) unless noted
Records with an inconclusive call do not appear. Calls of active or inactive are those of the source. Calls come from the whole dose curve; as a rule, active = well fitted curve in either direction with a large enough effect (not every such curve was filed as active); inconclusive = small, poorly fitted or top-dose-only effect, or another doubt; inactive = flat fitted curve, though single readings scatter.
Please provide measured activity, negative = inhibition for the entries that follow.

**Query** Quote activity, negative = inhibition reported for "O=C(c1cc(C(F)(F)F)cc(C(F)(F)F)c1)N1CCC2(CCCN(Cc3nccs3)C2)CC1" please.
**Result** -17.2% (inactive)

**Query** Quote activity, negative = inhibition reported for "FC(F)(F)c1ccccc1-c1nccc(N2CCNCC2)n1" please.
**Result** 9.61% (inactive)

**Query** Quote activity, negative = inhibition reported for "O=c1cnc2cncnc2n1Cc1ccccc1" please.
**Result** -12.1% (inactive)

**Query** Quote activity, negative = inhibition reported for "O=c1cnc2cnc(Oc3cccc(Cl)c3)nc2n1Cc1ccc(F)cc1" please.
**Result** -7.55% (inactive)

**Query** Quote activity, negative = inhibition reported for "CS(=O)(=O)N1CCC2(CCN(C(=O)Nc3cccc(C#N)c3)CC2)CC1" please.
**Result** -21% (inactive)

**Query** Quote activity, negative = inhibition reported for "Cc1noc(C)c1C(=O)N1CCC[C@@]2(CCN(c3ccccc3)C2)C1" please.
**Result** 3.26% (inactive)

**Query** Quote activity, negative = inhibition reported for "Cc1noc(C)c1-c1nc(N2CCNCC2)c2ccccc2n1" please.
**Result** 13.9% (inactive)

**Query** Quote activity, negative = inhibition reported for "O=C(Nc1ccccc1)N1CCCC2(CCN(C(=O)c3cc(C(F)(F)F)cc(C(F)(F)F)c3)CC2)C1" please.
**Result** -14.9% (inactive)

**Query** Quote activity, negative = inhibition reported for "Cc1cccc(CNc2ccnc(-c3ccoc3)n2)c1" please.
**Result** 6.16% (inactive)

**Query** Quote activity, negative = inhibition reported for "COc1ccccc1CN1CC2(CCN(S(C)(=O)=O)CC2)C1" please.
**Result** 4.21% (inactive)

**Query** Quote activity, negative = inhibition reported for "c1ccc(CNc2cc(-c3cccnc3)ncn2)cc1" please.
**Result** 14.9% (inactive)

**Query** Quote activity, negative = inhibition reported for "COc1ccccc1-c1cncnc1NCCNC(C)=O" please.
**Result** 2.82% (inactive)

**Query** Quote activity, negative = inhibition reported for "CN(C)c1ncc2nc(-c3cccs3)c(=O)n(C[C@H]3CCCO3)c2n1" please.
**Result** 1.25% (inactive)

**Query** Quote activity, negative = inhibition reported for "CN(C)Cc1ccccc1-c1cc(NC2CC2)ncn1" please.
**Result** 12.3% (inactive)

**Query** Quote activity, negative = inhibition reported for "O=C(Nc1cccc(F)c1)N1CC2(CCN(S(=O)(=O)c3ccccc3)CC2)C1" please.
**Result** -14.1% (inactive)

**Query** Quote activity, negative = inhibition reported for "O=C(c1cnccn1)N1CCC[C@@]2(CCN(C(c3ccccc3)c3ccccc3)C2)C1" please.
**Result** 16.5% (inactive)

**Query** Quote activity, negative = inhibition reported for "COc1ccccc1CNc1nc(-c2c(C)noc2C)nc2ccccc12" please.
**Result** -26.3% (inactive)

**Query** Quote activity, negative = inhibition reported for "COc1ccc(-n2c(=O)c(-c3ccccc3)nc3cnc(N4CCN(C)CC4)nc32)cc1" please.
**Result** 12.2% (inactive)

**Query** Quote activity, negative = inhibition reported for "COc1ccc(NC(=O)N2CCC3(CC2)CCN(S(=O)(=O)c2ccccc2)CC3)cc1" please.
**Result** -16.7% (inactive)

**Query** Quote activity, negative = inhibition reported for "Cc1ccccc1-c1nc(N2CCNCC2)c2ccccc2n1" please.
**Result** -10.4% (inactive)

**Query** Quote activity, negative = inhibition reported for "COCCNc1nc(-c2ccccc2OC)nc2ccccc12" please.
**Result** 7.08% (inactive)

**Query** Quote activity, negative = inhibition reported for "NCCCCNS(=O)(=O)c1cccc2c(Cl)cccc12" please.
**Result** 3.48% [at 38 µM] (inactive)

**Query** Quote activity, negative = inhibition reported for "CS(=O)(=O)N1CCC2(CC1)CN(c1cccc(-c3ccccc3)c1)C2" please.
**Result** -14.9% (inactive)
